assay: Plasma clearance in rat at 5 mg/kg; format: ADME, organism-based; design: dose 5 mg/kg
recorded-metric: clearance (mL/min/kg)

| compound | recorded-metric | result |
| --- | --- | --- |
| COC(=O)NC(C)C#Cc1cnc(Oc2ccc(OC(C)C)cc2)s1 (stereo unspecified) | clearance | 3.33 |

====

target: Acetyl-CoA carboxylase 2 (Homo sapiens); assay: Inhibition of human recombinant ACC2 expressed in baculovirus/sf9 system
Sequence (O00763 whole entry): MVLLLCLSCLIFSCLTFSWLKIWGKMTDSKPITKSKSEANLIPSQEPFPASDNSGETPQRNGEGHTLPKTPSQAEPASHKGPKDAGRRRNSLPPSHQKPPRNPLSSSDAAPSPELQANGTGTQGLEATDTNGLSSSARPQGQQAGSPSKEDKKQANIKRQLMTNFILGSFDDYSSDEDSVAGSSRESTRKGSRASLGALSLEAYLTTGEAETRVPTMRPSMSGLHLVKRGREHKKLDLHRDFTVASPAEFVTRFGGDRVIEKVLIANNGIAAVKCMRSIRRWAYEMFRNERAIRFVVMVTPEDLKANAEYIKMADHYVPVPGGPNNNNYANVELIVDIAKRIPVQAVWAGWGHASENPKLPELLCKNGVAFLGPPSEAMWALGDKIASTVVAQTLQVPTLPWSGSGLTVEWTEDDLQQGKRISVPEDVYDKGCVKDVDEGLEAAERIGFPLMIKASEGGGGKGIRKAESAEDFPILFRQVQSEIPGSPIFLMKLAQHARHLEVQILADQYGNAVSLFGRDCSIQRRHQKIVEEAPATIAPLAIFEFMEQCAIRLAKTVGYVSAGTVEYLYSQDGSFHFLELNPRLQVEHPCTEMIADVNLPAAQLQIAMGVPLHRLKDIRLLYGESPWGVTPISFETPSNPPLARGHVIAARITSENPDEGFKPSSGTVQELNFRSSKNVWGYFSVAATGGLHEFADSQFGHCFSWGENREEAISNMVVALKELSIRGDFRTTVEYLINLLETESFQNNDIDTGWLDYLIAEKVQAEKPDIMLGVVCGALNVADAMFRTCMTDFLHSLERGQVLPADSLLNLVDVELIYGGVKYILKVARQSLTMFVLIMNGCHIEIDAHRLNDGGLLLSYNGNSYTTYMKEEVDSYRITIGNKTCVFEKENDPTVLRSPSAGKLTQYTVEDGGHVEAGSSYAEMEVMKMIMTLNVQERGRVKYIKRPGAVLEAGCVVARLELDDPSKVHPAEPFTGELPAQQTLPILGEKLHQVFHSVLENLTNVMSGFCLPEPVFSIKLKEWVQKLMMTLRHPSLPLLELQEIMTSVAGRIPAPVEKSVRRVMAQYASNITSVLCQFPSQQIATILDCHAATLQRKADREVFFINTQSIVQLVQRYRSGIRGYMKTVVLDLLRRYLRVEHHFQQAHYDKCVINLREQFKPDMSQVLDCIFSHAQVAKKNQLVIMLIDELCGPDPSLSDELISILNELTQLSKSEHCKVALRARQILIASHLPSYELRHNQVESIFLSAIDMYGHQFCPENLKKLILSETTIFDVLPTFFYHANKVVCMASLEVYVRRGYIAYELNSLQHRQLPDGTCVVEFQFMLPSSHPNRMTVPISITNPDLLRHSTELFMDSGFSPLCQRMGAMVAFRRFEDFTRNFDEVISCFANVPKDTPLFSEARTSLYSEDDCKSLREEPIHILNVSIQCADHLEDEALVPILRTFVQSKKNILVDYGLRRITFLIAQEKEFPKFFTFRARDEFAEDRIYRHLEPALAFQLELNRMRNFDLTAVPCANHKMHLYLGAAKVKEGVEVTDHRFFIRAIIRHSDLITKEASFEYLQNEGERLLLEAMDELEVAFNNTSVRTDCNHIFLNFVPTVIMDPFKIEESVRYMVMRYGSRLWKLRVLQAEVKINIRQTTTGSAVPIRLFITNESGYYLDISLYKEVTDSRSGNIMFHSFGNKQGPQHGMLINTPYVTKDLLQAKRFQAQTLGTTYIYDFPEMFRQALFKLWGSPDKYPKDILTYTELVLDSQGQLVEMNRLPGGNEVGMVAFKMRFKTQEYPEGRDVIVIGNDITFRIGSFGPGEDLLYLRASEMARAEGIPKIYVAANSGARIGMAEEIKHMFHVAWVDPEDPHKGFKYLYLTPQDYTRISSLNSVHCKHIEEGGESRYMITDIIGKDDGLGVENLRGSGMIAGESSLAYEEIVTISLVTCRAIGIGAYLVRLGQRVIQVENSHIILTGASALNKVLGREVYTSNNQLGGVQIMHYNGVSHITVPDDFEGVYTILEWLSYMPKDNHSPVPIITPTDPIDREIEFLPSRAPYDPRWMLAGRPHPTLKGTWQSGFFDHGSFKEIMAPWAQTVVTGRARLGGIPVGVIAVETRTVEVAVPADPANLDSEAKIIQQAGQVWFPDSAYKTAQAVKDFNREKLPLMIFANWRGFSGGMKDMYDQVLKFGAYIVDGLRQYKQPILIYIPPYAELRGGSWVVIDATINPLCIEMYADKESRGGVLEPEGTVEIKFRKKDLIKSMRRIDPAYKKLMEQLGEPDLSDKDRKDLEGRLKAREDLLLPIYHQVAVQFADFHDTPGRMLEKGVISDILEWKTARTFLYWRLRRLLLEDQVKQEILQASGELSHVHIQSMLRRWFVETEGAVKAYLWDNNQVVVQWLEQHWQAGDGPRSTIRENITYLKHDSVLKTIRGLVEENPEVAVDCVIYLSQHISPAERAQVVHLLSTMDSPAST

| molecule | target | units-label | bound-operator | IC50 |
| --- | --- | --- | --- | --- |
| CC(=O)NC(C)C#Cc1csc(Oc2ccc(OC(C)C)cc2)n1 (stereo unspecified) | Acetyl-CoA carboxylase 2 (Homo sapiens) | µM | > | 30 |
| CC(=O)NC(C)C#Cc1cnc(Oc2ccc(C(C)C)cc2)s1 (stereo unspecified) | Acetyl-CoA carboxylase 2 (Homo sapiens) | µM | > | 30 |
| CNC(=O)NC(C)C#Cc1cnc(Oc2ccc(OC(C)C)cc2)s1 (stereo unspecified) | Acetyl-CoA carboxylase 2 (Homo sapiens) | µM | = | 0.03 |
| CC(=O)NC(C)C#Cc1cnc(Sc2ccc(OC(C)C)cc2)s1 (stereo unspecified) | Acetyl-CoA carboxylase 2 (Homo sapiens) | µM | = | 0.069 |
| CC(=O)NC(C)C#Cc1cnc(Oc2ccc(Oc3ccccc3)cc2)s1 (stereo unspecified) | Acetyl-CoA carboxylase 2 (Homo sapiens) | µM | = | 0.011 |
| COC(=O)N[C@H](C)C#Cc1cnc(Oc2ccc(OC(C)C)cc2)s1 | Acetyl-CoA carboxylase 2 (Homo sapiens) | µM | = | 1.51 |
